Entries and their measured IC50 follow.
# target: CatSper (Homo sapiens, UniProt Q7RTX7+Q86XQ3+Q8NEC5+Q96P56)
# Construct: Motile spermatozoa were selected by a ‘swim-up’ procedure; endogenous in cells; host or cells: motile human spermatozoa (swim-up) from healthy donors
# procedure-text: Inhibition of P4-induced Ca2+ influx in human sperm (screen 2 inhibitors)
# Type: cell-based
# assay-context: P4-induced response; pooled from 3 independent experiments; read-out: Mean IC50 (P4) µM (±SD)
Express your answer as a number followed by its unit.

[
  {
    "compound": "C#C[C@]1(O)CC[C@H]2[C@@H]3CCC4=CC(=O)CC[C@@H]4[C@H]3CC[C@@]21C [norethindrone]",
    "IC50": "4.35 µM"
  },
  {
    "compound": "C[C@]12CC[C@@H]3c4ccc(O)cc4C[C@@H](CCCCCCCCC[S+]([O-])CCCC(F)(F)C(F)(F)F)[C@H]3[C@@H]1CC[C@@H]2O (stereo partly shown) [fulvestrant]",
    "IC50": "6.95 µM"
  },
  {
    "compound": "C[C@]12CC[C@@H](O)C[C@H]1CC[C@@H]1[C@@H]2CC[C@]2(C)C(=O)CC[C@@H]12 [3-alpha-hydroxy-5-beta-androstan-17-one]",
    "IC50": "1.52 µM"
  }
]

Okay, next one:
Identify measured IC50 associated with C[C@]12CCC(=O)C=C1C=C[C@@H]1[C@@H]2CC[C@@]2(C)[C@H]1CC[C@@]2(O)CCC(=O)[O-].[K+] [canrenoic acid potassium salt]
23.2 µM

====

# target: CatSper (Homo sapiens, UniProt Q7RTX7+Q86XQ3+Q8NEC5+Q96P56)
# Construct: Motile spermatozoa were selected by a ‘swim-up’ procedure; endogenous in cells; host or cells: motile human spermatozoa (swim-up) from healthy donors
# procedure-text: Steroid-induced increase in [Ca2+]i in human sperm (Fluo-4 HTS assay, screen 1 activators)
# Type: cell-based
# assay-context: read-out: Max amplitude (%) (± SD)
Listing: Emax of selected compounds
Numbers only; they are read as %.

[
  {
    "compound": "C#C[C@]1(O)CC[C@H]2[C@@H]3CCC4=CC(=O)CC[C@@H]4[C@H]3CC[C@@]21C [norethindrone]",
    "Emax, %": 28
  },
  {
    "compound": "CC#C[C@]1(O)CC[C@H]2[C@@H]3CCC4=CC(=O)CCC4=C3[C@@H](c3ccc(N(C)C)cc3)C[C@@]21C [mifepristone]",
    "Emax, %": 9
  }
]

Param request: Emax | system CatSper (Homo sapiens, UniProt Q7RTX7+Q86XQ3+Q8NEC5+Q96P56) | item C[C@]12Cc3c[nH]nc3C[C@@H]1CC[C@@H]1[C@@H]2CC[C@@]2(C)[C@H]1CC[C@]2(C)O [Stanozolol]
79

Report Emax from CatSper (Homo sapiens, UniProt Q7RTX7+Q86XQ3+Q8NEC5+Q96P56) testing of C[C@]12C/C(=C/O)C(=O)C[C@@H]1CC[C@@H]1[C@@H]2CC[C@@]2(C)[C@H]1CC[C@]2(C)O [oxymetholone]
82

====

# target: CatSper (Homo sapiens, UniProt Q7RTX7+Q86XQ3+Q8NEC5+Q96P56)
# Construct: Motile spermatozoa were selected by a ‘swim-up’ procedure; endogenous in cells; host or cells: motile human spermatozoa (swim-up) from healthy donors
# procedure-text: Steroid-induced increase in [Ca2+]i in human sperm (Fluo-4 HTS assay, screen 1 activators)
# Assay type: cell-based
# assay-context: maximal amplitude of steroid-induced [Ca2+]i increase, relative to P4; 3 independent experiments; read-out: Max amplitude (%) (± SD)
property-name: Emax (%)
Field: numeric (%). Do not append units.

Examples from the recorded data:
[
  {
    "compound": "CC(=O)O[C@]1(C(C)=O)CC[C@H]2[C@@H]3C=C(C)C4=CC(=O)CC[C@]4(C)[C@H]3CC[C@@]21C [megestrol acetate]",
    "target": "CatSper (Homo sapiens, UniProt Q7RTX7+Q86XQ3+Q8NEC5+Q96P56)",
    "Emax, %": 3
  },
  {
    "compound": "CC(=O)[C@H]1CC[C@H]2[C@@H]3C=CC4=CC(=O)CC[C@@]4(C)[C@@H]3CC[C@]12C [Dydrogesterone]",
    "target": "CatSper (Homo sapiens, UniProt Q7RTX7+Q86XQ3+Q8NEC5+Q96P56)",
    "Emax, %": 84
  },
  {
    "compound": "CC(=O)[C@H]1CC[C@H]2[C@@H]3C[C@H](C)C4=CC(=O)CC[C@]4(C)[C@H]3[C@@H](O)C[C@]12C [Medrysone]",
    "target": "CatSper (Homo sapiens, UniProt Q7RTX7+Q86XQ3+Q8NEC5+Q96P56)",
    "Emax, %": 104
  }
]

For the compound CC(=O)[C@H]1CC[C@H]2[C@@H]3CCC4=CC(=O)CC[C@]4(C)[C@H]3CC[C@]12C [Progesterone] , give its measured Emax value.
100
